- study target: T1, Human CXCR2 (Homo sapiens, UniProt P25025)
- T1 sequence (P25025 1-360): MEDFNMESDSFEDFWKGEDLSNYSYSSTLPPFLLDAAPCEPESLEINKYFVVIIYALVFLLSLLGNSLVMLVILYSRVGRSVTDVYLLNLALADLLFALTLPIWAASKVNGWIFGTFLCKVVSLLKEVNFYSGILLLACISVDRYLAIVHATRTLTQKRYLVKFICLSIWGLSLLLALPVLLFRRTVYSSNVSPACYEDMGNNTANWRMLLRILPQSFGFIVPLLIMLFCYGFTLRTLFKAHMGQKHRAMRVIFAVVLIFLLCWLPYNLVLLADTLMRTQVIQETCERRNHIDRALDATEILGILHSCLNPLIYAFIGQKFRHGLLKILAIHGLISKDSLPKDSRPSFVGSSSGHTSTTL
- test details: cELISA of hybridoma supernatants on cells transfected with human CXCR2
- Assay type: binding
- Set-up: host or cells: Expi293F cells, vector pTT5
- test conditions: hybridoma supernatant; fluorescence units relative to positive control (100%)

molecule: BKO-5G11: VH SEQ ID NO: 23, VL SEQ ID NO: 24 (antibody, V domains shown, BKO_5G11_VH; BKO_5G11_VL) VH: EVQLLESGGGLVQPGGSLRLSCAVSGFTFSNYAMTWVRQAPGKGLEWVSAISGRGSRTYYADSVKGRFTISRDTSKNTLYLQMNSLRAEDTAVYYCAKMDYWGQGTLVTVSS VL: QSALTQPPSASGSPGQSVTISCTGTSSDVGGYNYVSWYQQHPGKAPKLMIFEVSKRPSGVPDRFSGSKSGNTASLTVSGLQAEDEADYYCSSYAGSNNFGVFGGGTKLTVL
Human CXCR2 % Positive, %: 101
